study-target: Alkaline phosphatase, placental type (Homo sapiens) (UniProt P05187)
experiment-notes: PLAP enzyme inhibitors, dose response, selectivity assay for human IAP inhibitor project, biochemical, uHTS hits, luminescence (AID 488892)
conditions: purified PLAP, CDP-Star luminescence, 30 min
Calls of active or inactive are those of the source.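 Rule for the calls: active = mean IC50 below a set limit; inactive = the rest.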
Lab note: assign the record to one of 1.0 (active), 0.0 (inactive)

Some solved cases for reference:
What is the recorded call for this molecule in the test? "C/C(=N/Nc1ccccc1[N+](=O)[O-])c1ccc([N+](=O)[O-])cc1"
0.0

Record request — test call for "COc1ccc2nc3cc(Cl)ccc3c(Nc3cc(CN4CCCC4)c(O)c(CN4CCCC4)c3)c2n1"
1.0

Tell me the assay call for "Nc1ccc(-c2c3ccc(=O)cc-3oc3cc(O)ccc23)cc1C(=O)O" please.
1.0

Each molecule tested received a call. Report the one for "CCOc1cc(/C=C2/C(=O)ON=C2C)cc(Br)c1O" .
1.0

---
Fill in: this test's call for "CC1=NN(Cc2ccccc2)C(=O)/C1=C\c1ccc(N(C)C)cc1" is ___
1.0

Outcome? CC(C)=CCc1c(O)ccc2c1OC(c1ccc(O)c(O)c1)CC2=O (stereo unspecified)
1.0
